STUDY SYSTEM: THR beta-LBD (Homo sapiens, UniProt P10828)
Construct: THR alpha-LBD (0.4 nM final concentration) or THR beta-LBD (1.0 nM final concentration) was added; purchased ThermoFisher
Sequence (P10828 217-461 limits assumed): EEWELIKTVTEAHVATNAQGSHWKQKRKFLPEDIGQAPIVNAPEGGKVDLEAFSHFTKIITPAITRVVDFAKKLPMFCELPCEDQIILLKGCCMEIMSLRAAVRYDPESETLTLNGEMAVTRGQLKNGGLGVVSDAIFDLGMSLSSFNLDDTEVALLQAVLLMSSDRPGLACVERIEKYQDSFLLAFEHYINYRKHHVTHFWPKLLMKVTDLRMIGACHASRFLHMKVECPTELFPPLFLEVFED
PROCEDURE DETAILS: LanthaScreen TR-FRET Thyroid Receptor beta Coactivator Assay
Format: biochemical
CONDITION SUMMARY: THR beta over THR alpha; derived from T3-selectivity normalized data
Answer each item with its documented THRβ-Selectivity.
One number for each entry.

Here is how some compounds turned out for THRβ-Selectivity.
- COMPOUND: "CC(O)c1cc(Oc2c(Cl)cc(-c3n[nH]c(=O)[nH]c3=O)cc2Cl)n[nH]c1=O (stereo not drawn)"
  THRβ-Selectivity: 8.6
- COMPOUND: "CC(C)c1cc(C(=O)c2c(Cl)cc(-c3n[nH]c(=O)[nH]c3=O)cc2Cl)nn(C)c1=O"
  THRβ-Selectivity: 15.3
- COMPOUND: "CC(C)c1cc(Cc2c(Cl)cc(-c3n[nH]c(=O)[nH]c3=O)cc2Cl)nn(C)c1=O"
  THRβ-Selectivity: 11.1
- COMPOUND: "CC(C)c1cc(Oc2c(Cl)cc(-c3nn(CC(F)F)c(=O)[nH]c3=O)cc2Cl)nn(C)c1=O"
  THRβ-Selectivity: 4.7

Would you mind listing THRβ-Selectivity for each of the following compounds?
1. C[C@@H](O)c1cc(Oc2c(Cl)cc(-c3nn(C)c(=O)[nH]c3=O)cc2Cl)n[nH]c1=O (single isomer, unassigned) [Compound 31 P2]
2. CC(C)c1cc(Cc2c(Cl)cc(-c3n[nH]c(=O)[nH]c3=O)cc2Cl)n[nH]c1=O

Response given:
21.7
31.2

For each listed entry, give its THRβ-Selectivity.
1. CCc1cc(Oc2c(Cl)cc(-c3nn(C)c(=O)[nH]c3=O)cc2Cl)n[nH]c1=O
2. CCC(O)c1cc(Oc2c(Cl)cc(-c3nn(C)c(=O)[nH]c3=O)cc2Cl)n[nH]c1=O (stereo not drawn)

Response given:
1. 19.2
2. 24.7

---

STUDY SYSTEM: THR beta-LBD (Homo sapiens)
Construct: THR alpha-LBD (0.4 nM final concentration) or THR beta-LBD (1.0 nM final concentration) was added
PROCEDURE DETAILS: LanthaScreen TR-FRET Thyroid Receptor beta Coactivator Assay
CONDITION SUMMARY: TR-FRET coactivator assay, 2 hours incubation at room temperature; run in duplicate multiple times, average data; read-out: EC50 THRβ-FRET
Please respond with reported EC50 for every item in the list.
One number for each entry, in nM.

- COMPOUND: "CC(C)c1cc(C(=O)c2c(Cl)cc(-c3n[nH]c(=O)[nH]c3=O)cc2Cl)n[nH]c1=O [Compound 8]"
  REPORTED PROPERTY: "EC50"
  UNITS SYMBOL: "nM"
  NUMERIC READOUT: 1450

I need EC50 for every entry listed below, if you could help.
1. CC(=O)c1cc(Oc2c(Cl)cc(-c3n[nH]c(=O)[nH]c3=O)cc2Cl)nn(C)c1=O [Compound 35]
2. C[C@@H](O)c1cc(Oc2c(Cl)cc(-c3nn(C)c(=O)[nH]c3=O)cc2Cl)n[nH]c1=O (single isomer, unassigned) [Compound 31 P2]
3. CC(CO)c1cc(Oc2c(Cl)cc(-c3nn(C)c(=O)[nH]c3=O)cc2Cl)n[nH]c1=O (stereo not shown) [Compound 29]
4. CC(C)c1cc(Oc2c(Cl)cc(-c3n[nH]c(=O)[nH]c3=O)cc2Cl)nn(C)c1=O [Compound 1]
5. CC(C)c1cc(Oc2c(Cl)cc(-c3n[nH]c(=O)[nH]c3=O)c(F)c2Cl)nn(C)c1=O [Compound 25]
6. CC(C)c1cc(Oc2c(Cl)cc(-c3nn(C)c(=O)[nH]c3=O)cc2Cl)n[nH]c1=O [Compound 3]

Response given:
[665, 452, 2070, 24.7, 22.2, 114]
